I'd appreciate it if you could supply MIC values for the items below.
test system: Staphylococcus aureus; assay: Antibacterial activity against erythromycin-sensitive Staphylococcus aureus ATCC 13709 by broth microdilution method; assay type: functional

Hi! What's the reported MIC for `CC[C@H]1OC(=O)[C@H](C)[C@@H](O[C@H]2C[C@@](C)(OC)[C@@H](OC(=O)CCOCCOCCNc3ccc4c(c3)c(=O)c(C(=O)O)cn4C3CC3)[C@H](C)O2)[C@H](C)[C@@H](O[C@@H]2O[C@H](C)C[C@H](N(C)C)[C@H]2O)[C@](C)(O)C[C@@H](C)CN(C)[C@H](C)[C@@H](O)[C@]1(C)O` on Staphylococcus aureus?
≤ 0.125 µg/mL

Proceed to `CC[C@H]1OC(=O)[C@H](C)[C@@H](O[C@H]2C[C@@](C)(OC)[C@@H](OC(=O)CCOCCOc3ccc4c(c3)c(=O)c(C(=O)O)cn4C3CC3)[C@H](C)O2)[C@H](C)[C@@H](O[C@@H]2O[C@H](C)C[C@H](N(C)C)[C@H]2O)[C@](C)(O)C[C@@H](C)CN(C)[C@H](C)[C@@H](O)[C@]1(C)O`
≤ 0.125 µg/mL

Proceed to `CC[C@H]1OC(=O)[C@H](C)[C@@H](O[C@H]2C[C@@](C)(OC)[C@@H](OC(=O)CCOCCOc3cc4c(=O)c(C(=O)OC(C)C)cn(C5CC5)c4cc3Cl)[C@H](C)O2)[C@H](C)[C@@H](O[C@@H]2O[C@H](C)C[C@H](N(C)C)[C@H]2O)[C@](C)(O)C[C@@H](C)CN(C)[C@H](C)[C@@H](O)[C@]1(C)O`
1 µg/mL

----------
system: Staphylococcus aureus; experiment: Antibacterial activity against efflux-mediated macrolide-resistant Staphylococcus aureus PK1 by broth microdilution method; type: functional
property_name: MIC (µg/mL)
Use µg/mL as the unit, but write only the number.

Query (molecule): `CC[C@H]1OC(=O)[C@H](C)[C@@H](O[C@H]2C[C@@](C)(OC)[C@@H](OC(=O)CCOCCOCCNc3cc4c(=O)c(C(=O)O)cn(C5CC5)c4cc3Cl)[C@H](C)O2)[C@H](C)[C@@H](O[C@@H]2O[C@H](C)C[C@H](N(C)C)[C@H]2O)[C@](C)(O)C[C@@H](C)CN(C)[C@H](C)[C@@H](O)[C@]1(C)O` ; field requested: MIC
0.25

Proceed to `CC[C@H]1OC(=O)[C@H](C)[C@@H](O[C@H]2C[C@@](C)(OC)[C@@H](OC(=O)CCOCCNc3ccc4c(c3)c(=O)c(C(=O)OC(C)C)cn4C3CC3)[C@H](C)O2)[C@H](C)[C@@H](O[C@@H]2O[C@H](C)C[C@H](N(C)C)[C@H]2O)[C@](C)(O)C[C@@H](C)CN(C)[C@H](C)[C@@H](O)[C@]1(C)O`
8

----------
I'd appreciate it if you could supply MIC values for the items below.
system: Staphylococcus aureus; assay: Antibacterial activity against efflux-mediated macrolide-resistant Staphylococcus aureus PK1 by broth microdilution method; type: functional
Use µg/mL as the unit, but write only the number.

Query (molecule): `CC[C@H]1OC(=O)[C@H](C)[C@@H](O[C@H]2C[C@@](C)(OC)[C@@H](OC(=O)CCOCCOc3cc4c(=O)c(C(=O)OC(C)C)cn(C5CC5)c4cc3Cl)[C@H](C)O2)[C@H](C)[C@@H](O[C@@H]2O[C@H](C)C[C@H](N(C)C)[C@H]2O)[C@](C)(O)C[C@@H](C)CN(C)[C@H](C)[C@@H](O)[C@]1(C)O` ; field requested: MIC
4

Proceed to `CC[C@H]1OC(=O)[C@H](C)[C@@H](O[C@H]2C[C@@](C)(OC)[C@@H](OC(=O)CCOCCOc3ccc4c(c3)c(=O)c(C(=O)OCC(C)=O)cn4C3CC3)[C@H](C)O2)[C@H](C)[C@@H](O[C@@H]2O[C@H](C)C[C@H](N(C)C)[C@H]2O)[C@](C)(O)C[C@@H](C)CN(C)[C@H](C)[C@@H](O)[C@]1(C)O`
1

Proceed to `CC[C@H]1OC(=O)[C@H](C)[C@@H](O[C@H]2C[C@@](C)(OC)[C@@H](OC(=O)CCOCCOc3ccc4c(c3)c(=O)c(C(=O)O)cn4C3CC3)[C@H](C)O2)[C@H](C)[C@@H](O[C@@H]2O[C@H](C)C[C@H](N(C)C)[C@H]2O)[C@](C)(O)C[C@@H](C)CN(C)[C@H](C)[C@@H](O)[C@]1(C)O`
0.25

Proceed to `CCC(=O)CNC(=O)COC(=O)c1cn(C2CC2)c2ccc(NCCOCCC(=O)O[C@H]3[C@H](C)O[C@@H](O[C@H]4[C@H](C)[C@@H](O[C@@H]5O[C@H](C)C[C@H](N(C)C)[C@H]5O)[C@](C)(O)C[C@@H](C)CN(C)[C@H](C)[C@@H](O)[C@](C)(O)[C@@H](CC)OC(=O)[C@@H]4C)C[C@@]3(C)OC)cc2c1=O`
8

Proceed to `CC[C@H]1OC(=O)[C@H](C)[C@@H](O[C@H]2C[C@@](C)(OC)[C@@H](OC(=O)CCOCCNc3ccc4c(c3)c(=O)c(C(=O)OCCN3CCCCC3)cn4C3CC3)[C@H](C)O2)[C@H](C)[C@@H](O[C@@H]2O[C@H](C)C[C@H](N(C)C)[C@H]2O)[C@](C)(O)C[C@@H](C)CN(C)[C@H](C)[C@@H](O)[C@]1(C)O`
1

Proceed to `CCCOC(=O)c1cn(C2CC2)c2cc(Cl)c(NCCOCCC(=O)O[C@H]3[C@H](C)O[C@@H](O[C@H]4[C@H](C)[C@@H](O[C@@H]5O[C@H](C)C[C@H](N(C)C)[C@H]5O)[C@](C)(O)C[C@@H](C)CN(C)[C@H](C)[C@@H](O)[C@](C)(O)[C@@H](CC)OC(=O)[C@@H]4C)C[C@@]3(C)OC)cc2c1=O`
1

Proceed to `CC[C@H]1OC(=O)[C@H](C)[C@@H](O[C@H]2C[C@@](C)(OC)[C@@H](OC(=O)CCOCCNc3cc4c(=O)c(C(=O)O)cn(C5CC5)c4cc3Cl)[C@H](C)O2)[C@H](C)[C@@H](O[C@@H]2O[C@H](C)C[C@H](N(C)C)[C@H]2O)[C@](C)(O)C[C@@H](C)CN(C)[C@H](C)[C@@H](O)[C@]1(C)O`
0.25

Proceed to `CC[C@H]1OC(=O)[C@H](C)[C@@H](O[C@H]2C[C@@](C)(OC)[C@@H](O)[C@H](C)O2)[C@H](C)[C@@H](O[C@@H]2O[C@H](C)C[C@H](N(C)C)[C@H]2O)[C@](C)(O)C[C@@H](C)CN(C)[C@H](C)[C@@H](O)[C@]1(C)O`
32

Proceed to `CC[C@H]1OC(=O)[C@H](C)[C@@H](O[C@H]2C[C@@](C)(OC)[C@@H](OC(=O)CCOCCNc3cc4c(=O)c(C(=O)OC(C)C)cn(C5CC5)c4cc3Cl)[C@H](C)O2)[C@H](C)[C@@H](O[C@@H]2O[C@H](C)C[C@H](N(C)C)[C@H]2O)[C@](C)(O)C[C@@H](C)CN(C)[C@H](C)[C@@H](O)[C@]1(C)O`
2

Proceed to `CC[C@H]1OC(=O)[C@H](C)[C@@H](O[C@H]2C[C@@](C)(OC)[C@@H](OC(=O)CCOCCNc3cc4c(=O)c(C(=O)OCOC(=O)C(C)(C)C)cn(C5CC5)c4cc3Cl)[C@H](C)O2)[C@H](C)[C@@H](O[C@@H]2O[C@H](C)C[C@H](N(C)C)[C@H]2O)[C@](C)(O)C[C@@H](C)CN(C)[C@H](C)[C@@H](O)[C@]1(C)O`
2
